Attribution: patent EP0852225B1

Quick list: pIC50 per entry.
- Tested on: Human Platelet Aggregation
- experiment summary: Measurement of in vitro human platelet aggregation using PRP (collagen-induced, aggregometer light transmittance)
- Type: cell-based
- condition info: platelet aggregation inhibition in human PRP; collagen final concentration 5 µg/ml; 37°C
pIC50: −log10 of the molar value.
recorded metric: pIC50

[[record]]
compound = "CCC(NC(=O)c1ccc(C(=N)N2CCCCCC2)cc1F)C(C)(C)C(=O)N1CCC(CC(=O)O)CC1 (stereo not shown)"
target = "Human Platelet Aggregation"
recorded_metric = "pIC50"
reported_value = 6.64

[[record]]
compound = "CCC(NC(=O)c1ccc(C(=N)N2CCC(=O)CC2)cc1F)C(C)(C)C(=O)N1CCC(CC(=O)O)CC1 (stereo not shown)"
target = "Human Platelet Aggregation"
recorded_metric = "pIC50"
reported_value = 6.92

[[record]]
compound = "CCC(NC(=O)c1ccc(C(=N)N2CCCC2)cc1F)C(C)(C)C(=O)N1CCC(CC(=O)O)CC1 (stereo not shown)"
target = "Human Platelet Aggregation"
recorded_metric = "pIC50"
reported_value = 7.06

[[record]]
compound = "CCC(NC(=O)c1ccc(C(=N)N2CCC(O)CC2)cc1F)C(C)(C)C(=O)N1CCC(CC(=O)O)CC1 (stereo not shown)"
target = "Human Platelet Aggregation"
recorded_metric = "pIC50"
reported_value = 7.28

[[record]]
compound = "CCC(NC(=O)c1ccc(C(=N)N2CCN(C)CC2)cc1F)C(C)(C)C(=O)N1CCC(CC(=O)O)CC1 (stereo not shown)"
target = "Human Platelet Aggregation"
recorded_metric = "pIC50"
reported_value = 7.16

[[record]]
compound = "CCC(NC(=O)c1ccc(C(=N)N2CCOCC2)cc1)C(C)(C)C(=O)N1CCC(CC(=O)O)CC1 (stereo not shown)"
target = "Human Platelet Aggregation"
recorded_metric = "pIC50"
reported_value = 6.66

[[record]]
compound = "CCC(NC(=O)c1ccc(C(=N)N2CCCCC2)cc1F)C(C)(C)C(=O)N1CCC(CC(=O)O)CC1 (stereo not shown)"
target = "Human Platelet Aggregation"
recorded_metric = "pIC50"
reported_value = 6.66

[[record]]
compound = "CCC(NC(=O)c1ccc(C(=N)N2CCOCC2)cc1F)C(C)(C)C(=O)N1CCC(CC(=O)O)CC1 (stereo not shown)"
target = "Human Platelet Aggregation"
recorded_metric = "pIC50"
reported_value = 6.82

[[record]]
compound = "CCC(NC(=O)c1ccc(C(=N)N2CCSCC2)cc1F)C(C)(C)C(=O)N1CCC(CC(=O)O)CC1 (stereo not shown)"
target = "Human Platelet Aggregation"
recorded_metric = "pIC50"
reported_value = 6.92

[[record]]
compound = "CCC(NC(=O)c1ccc(C(=N)N2CCSC2)cc1F)C(C)(C)C(=O)N1CCC(CC(=O)O)CC1 (stereo not shown)"
target = "Human Platelet Aggregation"
recorded_metric = "pIC50"
reported_value = 7.37

[[record]]
compound = "CCC(NC(=O)c1ccc(C(=N)N2CCN(c3ccccc3)CC2)cc1F)C(C)(C)C(=O)N1CCC(CC(=O)O)CC1 (stereo not shown)"
target = "Human Platelet Aggregation"
recorded_metric = "pIC50"
reported_value = 7.24

[[record]]
compound = "CC(C)(C(=O)N1CCC(CC(=O)O)CC1)C(NC(=O)c1ccc(C(=N)N2CCOCC2)cc1)c1ccccc1 (stereo not shown)"
target = "Human Platelet Aggregation"
recorded_metric = "pIC50"
reported_value = 6.62

[[record]]
compound = "CCC(NC(=O)c1ccc(C(=N)N2CCN(c3ccc(F)cc3)CC2)cc1F)C(C)(C)C(=O)N1CCC(CC(=O)O)CC1 (stereo not shown)"
target = "Human Platelet Aggregation"
recorded_metric = "pIC50"
reported_value = 7.06

